- measuredTarget: Coagulation factor XII (Homo sapiens)
- Sequence (P00748 20-372 limits assumed): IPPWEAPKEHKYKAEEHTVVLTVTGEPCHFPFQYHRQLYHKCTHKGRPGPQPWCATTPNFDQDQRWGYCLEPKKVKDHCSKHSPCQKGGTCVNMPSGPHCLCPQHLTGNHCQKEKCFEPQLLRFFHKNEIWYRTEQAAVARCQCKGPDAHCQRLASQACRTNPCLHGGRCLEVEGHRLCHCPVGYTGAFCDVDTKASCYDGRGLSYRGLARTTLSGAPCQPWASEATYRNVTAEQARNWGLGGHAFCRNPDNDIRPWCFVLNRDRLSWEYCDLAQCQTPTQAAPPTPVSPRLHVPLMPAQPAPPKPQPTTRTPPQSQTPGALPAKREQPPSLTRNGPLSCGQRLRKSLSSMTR
- Sequence (P00748 373-615 limits assumed): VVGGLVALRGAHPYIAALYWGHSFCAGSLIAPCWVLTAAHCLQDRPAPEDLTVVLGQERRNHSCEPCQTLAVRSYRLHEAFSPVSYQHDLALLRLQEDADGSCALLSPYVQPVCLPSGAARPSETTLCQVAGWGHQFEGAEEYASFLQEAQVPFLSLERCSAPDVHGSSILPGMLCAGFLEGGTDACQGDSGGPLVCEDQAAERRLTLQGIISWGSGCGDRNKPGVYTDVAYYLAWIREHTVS
recordedEndpoint: IC50 (µM)
Quick note: give the figure in µM, leave out the unit.

The compound CC(C)N1CCc2c(N)nn(C(=O)C3CCNc4ccc(F)cc43)c2C1 (stereo unspecified) showed IC50 equal to 60
